system: c-Src; experiment: phosphorylation enrichment, bacterial display (enrichment ratio); higher = better substrate or ligand; peptides without Tyr show the background;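 further: 11-residue human phosphosite peptides and single-mutation variants displayed on the E. coli surface, counted by deep sequencing, each peptide's frequency after selection divided by its frequency in the unselected input library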;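 further: frequency after pTyr selection over input frequency; kinase dosed for 20-30% of maximal phosphorylation in three min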
Would you mind telling me the reported phosphorylation enrichment of each entry?

Dear reader, for each entry below, please note its phosphorylation enrichment.
1. LNEQHYGGLTG [PGAM4_Y92_R90Q]
2. ASTHVYQIMNH [ITK_Y588]
3. KERNQYGGVMV [MMP21_Y347_E349G]
4. KDYETYQSFQN [CTNND2_Y1157_P1159S]
5. IGEGTYGVVFK [CDK2_Y15_YF]

1.04
2.58
0.507
4.92
4.93

Dear reader, for each entry below, please note its phosphorylation enrichment.
1. LGLTVYADCLA [ABCA4_Y2063]
2. ADRTRYSAFGG [RBM4_Y361_A359T]
3. TFGQVYKGPHV [TNIK_Y40_R43P_YF]
4. RFLRGYRQHAF [HLA-A_Y137_D140H_YF]
5. KGELRYMHSRV [ABCD1_Y281]
6. SVTCTYSPALY [TP53_Y126_N131Y]
7. DESEDCRDTVV [CNNM3_Y456_Y456C]

1: 0.473; 2: 0.399; 3: 0.433; 4: 0.805; 5: 0.48; 6: 1.21; 7: 0.474

Dear reader, for each entry below, please note its phosphorylation enrichment.
1. SDGHEYIYVDP [PDGFRB_Y579]
2. CTTIHYNYMGN [TP53_Y234_C238G]

1: 2; 2: 0.425

----------
Would you mind telling me the reported phosphorylation enrichment of each entry?
target: FGFR3 (UniProt P22607); assay: phosphorylation enrichment, bacterial display (enrichment ratio); higher = better substrate or ligand; peptides without Tyr show the background
Sequence (P22607 whole entry, looked up): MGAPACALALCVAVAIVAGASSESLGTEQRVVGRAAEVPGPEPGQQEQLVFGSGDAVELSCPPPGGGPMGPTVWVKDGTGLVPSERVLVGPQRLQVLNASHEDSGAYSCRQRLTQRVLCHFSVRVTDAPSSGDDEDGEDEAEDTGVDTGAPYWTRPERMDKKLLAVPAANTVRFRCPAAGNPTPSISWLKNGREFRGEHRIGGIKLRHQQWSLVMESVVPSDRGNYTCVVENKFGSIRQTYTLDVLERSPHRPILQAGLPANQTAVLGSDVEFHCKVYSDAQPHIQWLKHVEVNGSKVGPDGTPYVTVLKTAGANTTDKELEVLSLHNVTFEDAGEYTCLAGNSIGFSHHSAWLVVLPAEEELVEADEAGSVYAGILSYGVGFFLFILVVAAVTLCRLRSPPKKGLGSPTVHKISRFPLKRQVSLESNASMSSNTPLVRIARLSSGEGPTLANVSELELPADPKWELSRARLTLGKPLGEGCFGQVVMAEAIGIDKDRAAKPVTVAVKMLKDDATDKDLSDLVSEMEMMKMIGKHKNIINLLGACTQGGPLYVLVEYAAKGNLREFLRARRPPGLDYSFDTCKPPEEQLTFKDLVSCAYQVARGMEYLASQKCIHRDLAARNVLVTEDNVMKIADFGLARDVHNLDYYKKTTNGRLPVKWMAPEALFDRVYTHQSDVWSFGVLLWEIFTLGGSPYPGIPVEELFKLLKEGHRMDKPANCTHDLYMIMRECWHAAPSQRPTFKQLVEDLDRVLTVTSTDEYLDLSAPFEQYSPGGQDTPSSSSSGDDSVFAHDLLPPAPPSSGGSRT
Numbers only.

AAVLNYKAGRD [GRIN2A_Y737]: 0.379

Dear reader, for each entry below, please note its phosphorylation enrichment.
1. SDGHEYIYVDP [PDGFRB_Y579]
2. ALAHKYLGGGG [HBB_Y146_H147L]
3. ECKEAYHEGEC [PRKN_Y372]

1. 5.43
2. 0.325
3. 0.652

Dear reader, for each entry below, please note its phosphorylation enrichment.
1. SILTVYSKDNY [PANK2_Y400_A398T]
2. LSERGYSFVTT [ACTA2_Y200_T196S]
3. EQKKYYNAMKN [SCN5A_Y1495_K1500N]
4. SSSPTYPDLPF [GLI3_Y168]
5. QFNIQYSSSAA [ERBB2IP_Y981_YF]
6. FDRREYSRFEK [ITGB7_Y758_YF]

1: 0.594; 2: 1.46; 3: 0.382; 4: 0.627; 5: 0.661; 6: 0.526

Kindly note the recorded phosphorylation enrichment for NSRFTCKLEVK [USH2A_Y3747_Y3747C_YF] , which is 1

----------
Would you mind telling me the reported phosphorylation enrichment of each entry?
test system: AncSZ; assay: phosphorylation enrichment, bacterial display (enrichment ratio); higher = better substrate or ligand; peptides without Tyr show the background

Consider the reported phosphorylation enrichment for these sequences:
PLGKDYRKVEG [MAP1A_Y1909_A1912V]: 1.27
GKFFQYDTWKQ [IGF2_Y116]: 0.766
VHYLVYHHHHH [CACNA1H_Y519_H516Y]: 1.17
KERNQYGGVMV [MMP21_Y347_E349G]: 0.534
SHLEDYPFNAE [AKR1B10_Y310]: 1.01

Dear reader, for each entry below, please note its phosphorylation enrichment.
1. RLLVVYPWTQR [HBB_Y36]
2. LDAGEYCVPRG [BEX1_Y43]
3. ALVDTYCRHNY [HLA-DRB1_Y107_A103L]

1. 1.09
2. 8.78
3. 0.474

This collection of values is drawn from the supplement of paper PMC10065799.
